meta.source: PubChem BioAssay

Task for the reader: assign each of the following compounds its reported composite z-score.
biological target: Concanavalin-A (Canavalia ensiformis); experiment: ConA small-molecule binders, primary screen, artefact control for SMM control protein annotation, biochemical, small-molecule microarray, Alexa647 label, 635 nm (AID 1127); conditions: ConA-A647 binding fluorescence, higher = more signal;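 note: z combines 667 nm emission intensity with signal-to-noise across three replicate slides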
Just the number, please.

**Query** Look up composite z-score: CCCNC(=O)OC[C@H]1O[C@H](CCON=C(C)C)C=C[C@@H]1Oc1ccc(OC)cc1
**Result** 0.853

**Query** Fill blank: measured composite z-score of the compound CC(C)(C)N1C(=O)[C@H]2[C@H]3[C@H](O)C=CC(=O)[C@@H]3CC[C@H]2C1=O is ____.
**Result** 0.607

**Query** Please give the measured composite z-score for this compound: CCOC(=O)CCN1C(=O)[C@H]2[C@H]3[C@H](O)[C@H](O)CC(=NOCc4ccccc4)[C@H]3CC[C@H]2C1=O
**Result** -0.477

**Query** Quick check: composite z-score of CO[C@@H]1C=CCC(=O)N[C@@H](C)C(=O)OC[C@@H](OC)[C@H](C)CCCC(=O)OC[C@H]1C ?
**Result** -0.997

**Query** // lookup composite z-score for CCOC(=O)[C@H](Cc1ccccc1)NC(=O)CCC1CC(OC(=O)NCc2cccc3ccccc23)CC2(CCCC(COC(=O)NCc3cccc(C(F)(F)F)c3)O2)O1 (stereo partly specified)
**Result** 0.187

**Query** Any idea what composite z-score was measured for COC(=O)CC=C[C@@H](C)[C@@H](C=NOC[C@@H](O)[C@H]1O[C@@H]2OC(C)(C)O[C@@H]2[C@H]1O)NS(=O)(=O)c1ccc(C)cc1 ?
**Result** -0.137

====

test: small-molecule microarray binders of probe aDKK1, primary screen, biochemical, biotinylated probe, 635/667 nm fluorescence (AID 1099); details: higher = more signal;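 note: score merges 667nm spot fluorescence with signal to noise across triplicate slides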
# binarize composite z-score: threshold -0.3 inclusive, high side 1, low side -1

**Query** Form field: composite z-score at least -0.3? Entry: Cc1ccc(S(=O)(=O)N[C@H]2COC(=O)CC=C[C@@H](C)COC(=O)CC=C[C@@H]2C)cc1
**Result** -1

**Query** Reported composite z-score reaches at least -0.3 for CO[C@H]1COC(=O)CC=C[C@H](C)[C@@H](OC)COC(=O)[C@@H](C)NC(=O)CC=C[C@@H]1C ?
**Result** -1

**Query** Can CCc1cc2c(nc1CC)CCN(CCC(C)=NOC[C@H]1O[C@H](c3ccccc3)C=C[C@@H]1Oc1ccc(OC)cc1)C2 be said to have composite z-score at or above -0.3?
**Result** 1

**Query** Could you tell me if the measured composite z-score of O=C1C[C@@H](O)[C@@H](O)[C@@H]2[C@@H]3C(=O)N(c4cccc(Oc5ccccc5)c4)C(=O)[C@@H]3CC[C@H]12 reaches -0.3 or more?
**Result** 1

**Query** Reported composite z-score at or above -0.3? Cc1cc2c(nc1C)CCCN2CC(O)CN1CCCc2nc(C)c(C)cc21
**Result** 1

**Query** Does composite z-score meet or surpass -0.3 for CCOC(=O)CCN1C(=O)[C@H]2[C@H]3[C@H](O)[C@H](O)CC(=NOCC(C)C)[C@H]3CC[C@H]2C1=O ?
**Result** 1

**Query** Can CCOC(=O)[C@H](CC(C)C)NC(=O)CCC1CC(OC(=O)NCc2cccc3ccccc23)CC2(CCCC(COC(=O)NCCC(C)C)O2)O1 (some centres not stated) be said to have composite z-score at or above -0.3?
**Result** 1

**Query** Decide: composite z-score of O=C1CCCC=C1C(O)CCOC(c1ccccc1)(c1ccccc1)c1ccccc1 (configuration not stated) >= -0.3?
**Result** 1

**Query** Exam item: decide whether the reported composite z-score for O=C1C=C[C@@H](O)[C@@H]2[C@@H]3C(=O)N(C[C@@H]4CCCO4)C(=O)[C@@H]3CC[C@@H]12 is at least -0.3.
**Result** 1

**Query** Does composite z-score meet or surpass -0.3 for COC(=O)[C@@H]1CC[C@H](C)[C@@H](c2ccc(C)cc2)N1C(=O)c1ccc(C=NO[C@H](C)c2cn([C@@H]3COC[C@H]3O)nn2)cc1 ?
**Result** 1

**Query** # bool: composite z-score of CC(C)CON=C1C[C@@H](O)[C@@H](O)[C@@H]2[C@@H]3C(=O)N(C4CCCCC4)C(=O)[C@@H]3CC[C@H]12 >= -0.3
**Result** 1

**Query** API: above_or_equal(metric=composite z-score, cutoff=-0.3) for item CCOC(=O)NN=C1C[C@@H](O)[C@@H](O)[C@@H]2[C@@H]3C(=O)N(Cc4ccc5c(c4)OCO5)C(=O)[C@@H]3CC[C@H]12
**Result** 1

**Query** hey, is composite z-score for this one >= -0.3? CC(CCN1CCCCc2nc(C)c(C)cc21)=NOC[C@@H](C)[C@H](OCc1ccccc1)C(C)C
**Result** -1

**Query** Exam item: decide whether the reported composite z-score for COC(=O)CC=C[C@@H](C)[C@@H](C=NO[C@@H]1O[C@H](COC(C)=O)[C@@H](OC(C)=O)[C@H](OC(C)=O)[C@H]1OC(C)=O)NS(=O)(=O)c1ccc(C)cc1 is at least -0.3.
**Result** 1

**Query** composite z-score >= -0.3 for O=C1C2=CC[C@H]3C(=O)N(c4cccc(Oc5ccccc5)c4)C(=O)[C@H]3[C@H]2[C@H](O)[C@@H]2O[C@H]12 ?
**Result** -1

**Query** In plain terms: is recorded composite z-score at least -0.3 for C[C@@H]1CC[C@H]2C(=O)O[C@@H](COc3ccc(C(C)(C)C)cc3)CN2[C@@H]1c1ccc(Br)cc1 ?
**Result** -1

**Query** Could you verify whether the entry CCOC(=O)[C@H](Cc1ccccc1)NC(=O)CCC1CC(OC(=O)NCc2ccc3c(c2)OCO3)CC2(CCCC(COC(=O)NCCC(C)C)O2)O1 (some centres not stated) shows composite z-score of no less than -0.3?
**Result** 1

**Query** Could you tell me if the measured composite z-score of C=C(C)C(=O)OCC1CN2[C@@H](CC[C@@H](C)[C@@H]2c2ccc(Br)cc2)C(=O)O1 (some centres not stated) reaches -0.3 or more?
**Result** 1

**Query** Is it the case that CO[C@H]1COC(=O)CCC[C@@H](C)[C@H](OC)COC(=O)[C@@H]2CCCN2C(=O)CC=C[C@@H]1C has composite z-score reaching or exceeding -0.3?
**Result** -1

**Query** Does the molecule COC(=O)CC=C[C@@H](C)[C@@H](C=NO[C@@H](C)c1cc(-c2c(C)cc(C)cc2C)no1)NS(=O)(=O)c1ccc(C)cc1 have recorded composite z-score that is -0.3 or more?
**Result** 1

**Query** Please check the record Cc1cc2c(nc1C)CCCCN2CC(C)ON=C[C@@H](C)[C@H](OCc1ccccc1)C(C)C (some centres not stated) and state if its composite z-score is at or above -0.3.
**Result** -1

**Query** API: above_or_equal(metric=composite z-score, cutoff=-0.3) for item C#CCCCON=C1C[C@@H](O)[C@@H](O)[C@@H]2[C@@H]3C(=O)N(C(C)(C)C)C(=O)[C@@H]3CC[C@H]12
**Result** 1

**Query** Form field: composite z-score at least -0.3? Entry: CO[C@@H]1C=CCC(=O)N[C@@H](C)C(=O)OC[C@@H](OC)[C@H](C)CCCC(=O)OC[C@H]1C
**Result** -1

**Query** Test whether the molecule CC(=O)OC[C@H]1O[C@H](CC=NO[C@H](C)c2cn([C@H](CO)Cc3ccccc3)nn2)C=C[C@@H]1OC(C)=O records composite z-score of -0.3 or higher.
**Result** 1

**Query** Is composite z-score for CCOC(=O)C1=NO[C@]2(C=C(Br)C3(OCCCO3)[C@H]3O[C@H]32)C1 at or above -0.3?
**Result** -1

**Query** Can CCN1C(=O)[C@H]2[C@H]3[C@H](O)[C@H](O)CC(=NOC[C@H]4O[C@H](c5ccccc5)C=C[C@@H]4Oc4ccc(OC)cc4)[C@@H]3CC[C@H]2C1=O be said to have composite z-score at or above -0.3?
**Result** 1

====

test: S. cerevisiae growth modulation with rapamycin, primary screen, strain BY4716, OD600, 96 h (AID 1091); conditions: higher = more signal, called active from +8 up or from −8 down; note: test concentration not given here
So basically every entry gets a class from its z-score, ranges being range A = under -0.4, range B = from -0.4 up to 0.1, range C = 0.1 and over

**Query** Categorize the following entry: C=COC[C@@H]1CN2[C@@H](CC[C@@H](C)[C@@H]2c2ccc(Br)cc2)C(=O)O1
**Result** range A

**Query** Dear colleague, I would appreciate it if you could identify the bin for O=C1[C@H]2[C@H]3[C@H](O)[C@H](O)CC(=NOC[C@@H](O)COCc4ccco4)[C@@H]3CC[C@H]2C(=O)N1C[C@@H]1CCCO1 and reply at your convenience.
**Result** range C

**Query** Note: place this compound into its band. Item: CCN1C(=O)[C@H]2[C@H]3[C@H](O)[C@H](O)CC(=NOC[C@H]4O[C@H](c5ccccc5)C=C[C@@H]4Oc4ccc(OC)cc4)[C@@H]3CC[C@H]2C1=O
**Result** range B

**Query** Form: Item = COC(=O)CC=C[C@@H](C)[C@@H](C=NO[C@@H]1O[C@H](COC(C)=O)[C@@H](OC(C)=O)[C@H](OC(C)=O)[C@H]1OC(C)=O)OC ; Class = ?
**Result** range C

**Query** For this compound, which bin applies? CCOC(=O)[C@H](Cc1ccccc1)NC(=O)CCC1CC(OC(=O)NCc2cccc3ccccc23)CC2(CCCC(COC(=O)NCCC(C)C)O2)O1 (stereo partly specified)
**Result** range A

**Query** Which category does the recorded z-score put CCN1C(=O)[C@H]2[C@H]3[C@H](O)[C@H](O)CC(=NO[C@@H](C)c4cn([C@H](CO)Cc5ccccc5)nn4)[C@@H]3CC[C@H]2C1=O in?
**Result** range C

**Query** # classify by z-score band: CCOC(=O)[C@H](Cc1ccccc1)NC(=O)CCC1CC(OC(=O)NCCc2ccc(F)cc2)CC2(CCCC(COC(=O)NCCCN3CCCC3=O)O2)O1 (stereo partly specified)
**Result** range C

**Query** GET /class?item= O=C1C2=CC[C@H]3C(=O)N(c4cccc(Oc5ccccc5)c4)C(=O)[C@H]3[C@H]2[C@H](O)[C@@H]2O[C@H]12
**Result** range B

**Query** Category of CO[C@@H]1COC(=O)[C@H](CCSC)NC(=O)CC=C[C@@H](C)COC(=O)CCC[C@H]1C , please.
**Result** range A
